tested on: biotinyl-Ile-oxazolone; experiment: self-aminoacylation, catalytic enhancement (BIO) (fold over background); higher = more active; k-Seq, kA / k0A0; sequences stand for … in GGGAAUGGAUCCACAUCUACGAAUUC…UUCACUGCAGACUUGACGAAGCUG
Fewer inactive variants are shown than the library holds.
Provide the recorded self-aminoacylation for the entries that follow.

[Q] Form field: reported self-aminoacylation of AAGUUUGCUCAUAGUGGCAAG [Fam3.1 aminoacylation ribozyme variant]
[A] 0.71

[Q] Form field: reported self-aminoacylation of CCACACGUCAAGCAAUAGGUC [Fam1B.1 aminoacylation ribozyme variant]
[A] 0.655

[Q] Form field: reported self-aminoacylation of AAUCACCUAGGUCCUCGGGUG [Fam2.2 aminoacylation ribozyme variant]
[A] 3.74

[Q] Form field: reported self-aminoacylation of AUUACCGUGGUCAUCGUGUGA [Fam2.1 aminoacylation ribozyme variant]
[A] 1.3

[Q] Form field: reported self-aminoacylation of AUUCACCUAGGACGUCGGGUG [Fam2.2 aminoacylation ribozyme variant]
[A] 1.66

[Q] Form field: reported self-aminoacylation of CUAAUUCAACCAAUCGGUCUG [Fam1A.1 aminoacylation ribozyme variant]
[A] 0.66

[Q] Form field: reported self-aminoacylation of AUUACCCUGGUGAUUGAGUGA [Fam2.1 aminoacylation ribozyme variant]
[A] 3.55

[Q] Form field: reported self-aminoacylation of AUUACCCUGGUUAACGAGUGA [Fam2.1 aminoacylation ribozyme variant]
[A] 5.85

[Q] Form field: reported self-aminoacylation of AUUCCCCUGGACAUCGAGUGA [Fam2.1 aminoacylation ribozyme variant]
[A] 3.41

[Q] Form field: reported self-aminoacylation of CUACUUGAGACAAUCGGUCUG [Fam1A.1 aminoacylation ribozyme variant]
[A] 0.884

[Q] Form field: reported self-aminoacylation of AUUCACCUAUGUCAUCGGCUG [Fam2.2 aminoacylation ribozyme variant]
[A] 1.38

[Q] Form field: reported self-aminoacylation of AUUACCCUAGUCAUCGAGUGA [Fam2.1 aminoacylation ribozyme variant]
[A] 2.89

[Q] Form field: reported self-aminoacylation of CUACUUCGAACAAUAGGUCUG [Fam1A.1 aminoacylation ribozyme variant]
[A] 0.547

[Q] Form field: reported self-aminoacylation of AAUUUUGCUAAUAGGCGCAAG [Fam3.1 aminoacylation ribozyme variant]
[A] 1.57

[Q] Form field: reported self-aminoacylation of AUUACCCUCGUUAUCGAGUGA [Fam2.1 aminoacylation ribozyme variant]
[A] 5.66

[Q] Form field: reported self-aminoacylation of UCACACUUCAAACAAUCGGUC [Fam1B.1 aminoacylation ribozyme variant]
[A] 1.34

[Q] Form field: reported self-aminoacylation of CUACUUGAAACAAUCGGUCUC [Fam1A.1 aminoacylation ribozyme variant]
[A] 0.789

[Q] Form field: reported self-aminoacylation of CUUCACCUAGGCCAUCGGGUG [Fam2.2 aminoacylation ribozyme variant]
[A] 2.55

###

test system: biotinyl-Phe-oxazolone; assay: self-aminoacylation, catalytic enhancement (BFO) (fold over background); higher = more active; k-Seq, kA / k0A0; sequences stand for … in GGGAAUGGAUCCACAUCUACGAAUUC…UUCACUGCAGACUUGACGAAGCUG
Fewer inactive variants are shown than the library holds.
Label scheme, based on self-aminoacylation: label 0 (below 6), label 1 (6 to below 60), label 2 (60 or more)

[Q] Hi there! Could you help me figure out the category for AUCCACCUAGGUCAUGGGGUG [Fam2.2 aminoacylation ribozyme variant] please?
[A] label 1

[Q] Hi there! Could you help me figure out the category for AAGUUUCCUAAUAGUUGCAAG [Fam3.1 aminoacylation ribozyme variant] please?
[A] label 0

[Q] Hi there! Could you help me figure out the category for CCACCCUUCAAGAAAUCGGUC [Fam1B.1 aminoacylation ribozyme variant] please?
[A] label 0

[Q] Hi there! Could you help me figure out the category for AUUCCCCUAGGUCAUCGUGUG [Fam2.2 aminoacylation ribozyme variant] please?
[A] label 1

[Q] Hi there! Could you help me figure out the category for CUACUUCAAACAAUUGGUUUG [Fam1A.1 aminoacylation ribozyme variant] please?
[A] label 0

[Q] Hi there! Could you help me figure out the category for ACUACCCUGGUCAUCGAGUGU [Fam2.1 aminoacylation ribozyme variant] please?
[A] label 2

[Q] Hi there! Could you help me figure out the category for AUUACCCUGGUGAUUGAGUGA [Fam2.1 aminoacylation ribozyme variant] please?
[A] label 1

[Q] Hi there! Could you help me figure out the category for AUUCACCGAGGUUAUCGGGUG [Fam2.2 aminoacylation ribozyme variant] please?
[A] label 2

[Q] Hi there! Could you help me figure out the category for UUUCACUUAGGUCAUCGGGUG [Fam2.2 aminoacylation ribozyme variant] please?
[A] label 1

###

tested on: biotinyl-Met-oxazolone; assay: self-aminoacylation, catalytic enhancement (BMO) (fold over background); higher = more active; k-Seq, kA / k0A0; sequences stand for … in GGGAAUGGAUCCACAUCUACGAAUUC…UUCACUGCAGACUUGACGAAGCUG
Fewer inactive variants are shown than the library holds.
Answer NO if self-aminoacylation is under 1, and YES if it is 1 or more.

[Q] Assess whether reported self-aminoacylation for AUUCACCUAGGUCAUCAGCUG [Fam2.2 aminoacylation ribozyme variant] sits at 1 or higher.
[A] NO

[Q] Assess whether reported self-aminoacylation for CUACAUCAAACAAUCGGCCUG [Fam1A.1 aminoacylation ribozyme variant] sits at 1 or higher.
[A] YES

[Q] Assess whether reported self-aminoacylation for CUACUUCAAACAAUCGGUGUA [Fam1A.1 aminoacylation ribozyme variant] sits at 1 or higher.
[A] YES

[Q] Assess whether reported self-aminoacylation for AUUCACCAAGGUCAUCGGGUU [Fam2.2 aminoacylation ribozyme variant] sits at 1 or higher.
[A] YES

[Q] Assess whether reported self-aminoacylation for AUUGCCCUGGACAUCGAGUGA [Fam2.1 aminoacylation ribozyme variant] sits at 1 or higher.
[A] YES

[Q] Assess whether reported self-aminoacylation for AAGUUUCCUAAUAGUCACAAG [Fam3.1 aminoacylation ribozyme variant] sits at 1 or higher.
[A] YES

[Q] Assess whether reported self-aminoacylation for CCACACUUCAAUCAAUCCGUC [Fam1B.1 aminoacylation ribozyme variant] sits at 1 or higher.
[A] NO

[Q] Assess whether reported self-aminoacylation for AUUCACCUAAGGCAUCGGGUG [Fam2.2 aminoacylation ribozyme variant] sits at 1 or higher.
[A] YES

[Q] Assess whether reported self-aminoacylation for GUUACCCUGGUCGUCGAGUGA [Fam2.1 aminoacylation ribozyme variant] sits at 1 or higher.
[A] YES

[Q] Assess whether reported self-aminoacylation for AUUUCCCUGGCCAUCGAGUGA [Fam2.1 aminoacylation ribozyme variant] sits at 1 or higher.
[A] YES

[Q] Assess whether reported self-aminoacylation for CCACACUCCAAGCAAUAGGUC [Fam1B.1 aminoacylation ribozyme variant] sits at 1 or higher.
[A] NO

[Q] Assess whether reported self-aminoacylation for AUACACCUAGGUCAUGGGGUG [Fam2.2 aminoacylation ribozyme variant] sits at 1 or higher.
[A] YES

[Q] Assess whether reported self-aminoacylation for AUUACCCUGGUCAACGAGAGA [Fam2.1 aminoacylation ribozyme variant] sits at 1 or higher.
[A] NO

[Q] Assess whether reported self-aminoacylation for CUUACACUGGUCAUCGAGUGA [Fam2.1 aminoacylation ribozyme variant] sits at 1 or higher.
[A] YES

[Q] Assess whether reported self-aminoacylation for UAGUUUACUAAUAGUCGCAAG [Fam3.1 aminoacylation ribozyme variant] sits at 1 or higher.
[A] YES

[Q] Assess whether reported self-aminoacylation for AUUCACGUAGGCCAUCGGGUG [Fam2.2 aminoacylation ribozyme variant] sits at 1 or higher.
[A] YES

[Q] Assess whether reported self-aminoacylation for AUUCGCCUACGUCAUCGGGUG [Fam2.2 aminoacylation ribozyme variant] sits at 1 or higher.
[A] YES

###

system: biotinyl-Phe-oxazolone; assay: self-aminoacylation, catalytic enhancement (BFO) (fold over background); higher = more active; k-Seq, kA / k0A0; sequences stand for … in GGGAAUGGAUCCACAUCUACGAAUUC…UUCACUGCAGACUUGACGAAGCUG
Fewer inactive variants are shown than the library holds.
parameter-measured: self-aminoacylation
Give your answer as a number; write no unit.

[Q] Form field: reported self-aminoacylation of AUGCCCCUAGGUCAUCGGGUG [Fam2.2 aminoacylation ribozyme variant]
[A] 63.9

[Q] Form field: reported self-aminoacylation of CUACUUCAAACAAGGGGUCUG [Fam1A.1 aminoacylation ribozyme variant]
[A] 0.71

[Q] Form field: reported self-aminoacylation of CGACACUUCAAGAAAUCGGUC [Fam1B.1 aminoacylation ribozyme variant]
[A] 3.41

[Q] Form field: reported self-aminoacylation of AUUCACCUAGCUCAACGGGUG [Fam2.2 aminoacylation ribozyme variant]
[A] 6.75

[Q] Form field: reported self-aminoacylation of CCACACUUCAAGCAAUCUGAC [Fam1B.1 aminoacylation ribozyme variant]
[A] 0.63

[Q] Form field: reported self-aminoacylation of CUACUUCCAACAAUCGGGCUG [Fam1A.1 aminoacylation ribozyme variant]
[A] 0.889

[Q] Form field: reported self-aminoacylation of ACGUUUGCUAACAGUCGCAAG [Fam3.1 aminoacylation ribozyme variant]
[A] 4.28

[Q] Form field: reported self-aminoacylation of CUUCACCUAGGUCAUCGGGUU [Fam2.2 aminoacylation ribozyme variant]
[A] 18.1

[Q] Form field: reported self-aminoacylation of AUUCGCCUAGGUCAUCGUGUG [Fam2.2 aminoacylation ribozyme variant]
[A] 3.31

[Q] Form field: reported self-aminoacylation of CGUACCCUGGUCAUCGAGUGA [Fam2.1 aminoacylation ribozyme variant]
[A] 10.1

[Q] Form field: reported self-aminoacylation of CCACAUUUCAAGUAAUCGGUC [Fam1B.1 aminoacylation ribozyme variant]
[A] 2.1

[Q] Form field: reported self-aminoacylation of CUUACCCUGGUCAACGAGUGA [Fam2.1 aminoacylation ribozyme variant]
[A] 15.8

[Q] Form field: reported self-aminoacylation of CAAAUUCAAACAAUCGGUCUG [Fam1A.1 aminoacylation ribozyme variant]
[A] 6.39

[Q] Form field: reported self-aminoacylation of AAGUUUACUUAUAGUCGCAAG [Fam3.1 aminoacylation ribozyme variant]
[A] 2.5

[Q] Form field: reported self-aminoacylation of AUUUCCCUGGUCAUCGAAUGA [Fam2.1 aminoacylation ribozyme variant]
[A] 0.941

[Q] Form field: reported self-aminoacylation of UAGUUUACUAAUAGUCGCAAG [Fam3.1 aminoacylation ribozyme variant]
[A] 2.86

[Q] Form field: reported self-aminoacylation of AUUCAUCUAGGUUAUCGGGUG [Fam2.2 aminoacylation ribozyme variant]
[A] 28.8

[Q] Form field: reported self-aminoacylation of CGACACUUCAAGCAAUCUGUC [Fam1B.1 aminoacylation ribozyme variant]
[A] 0.656
